Target: cGMP-inhibited 3',5'-cyclic phosphodiesterase 3A (Homo sapiens, UniProt Q14432)
Sequence (Q14432 whole entry): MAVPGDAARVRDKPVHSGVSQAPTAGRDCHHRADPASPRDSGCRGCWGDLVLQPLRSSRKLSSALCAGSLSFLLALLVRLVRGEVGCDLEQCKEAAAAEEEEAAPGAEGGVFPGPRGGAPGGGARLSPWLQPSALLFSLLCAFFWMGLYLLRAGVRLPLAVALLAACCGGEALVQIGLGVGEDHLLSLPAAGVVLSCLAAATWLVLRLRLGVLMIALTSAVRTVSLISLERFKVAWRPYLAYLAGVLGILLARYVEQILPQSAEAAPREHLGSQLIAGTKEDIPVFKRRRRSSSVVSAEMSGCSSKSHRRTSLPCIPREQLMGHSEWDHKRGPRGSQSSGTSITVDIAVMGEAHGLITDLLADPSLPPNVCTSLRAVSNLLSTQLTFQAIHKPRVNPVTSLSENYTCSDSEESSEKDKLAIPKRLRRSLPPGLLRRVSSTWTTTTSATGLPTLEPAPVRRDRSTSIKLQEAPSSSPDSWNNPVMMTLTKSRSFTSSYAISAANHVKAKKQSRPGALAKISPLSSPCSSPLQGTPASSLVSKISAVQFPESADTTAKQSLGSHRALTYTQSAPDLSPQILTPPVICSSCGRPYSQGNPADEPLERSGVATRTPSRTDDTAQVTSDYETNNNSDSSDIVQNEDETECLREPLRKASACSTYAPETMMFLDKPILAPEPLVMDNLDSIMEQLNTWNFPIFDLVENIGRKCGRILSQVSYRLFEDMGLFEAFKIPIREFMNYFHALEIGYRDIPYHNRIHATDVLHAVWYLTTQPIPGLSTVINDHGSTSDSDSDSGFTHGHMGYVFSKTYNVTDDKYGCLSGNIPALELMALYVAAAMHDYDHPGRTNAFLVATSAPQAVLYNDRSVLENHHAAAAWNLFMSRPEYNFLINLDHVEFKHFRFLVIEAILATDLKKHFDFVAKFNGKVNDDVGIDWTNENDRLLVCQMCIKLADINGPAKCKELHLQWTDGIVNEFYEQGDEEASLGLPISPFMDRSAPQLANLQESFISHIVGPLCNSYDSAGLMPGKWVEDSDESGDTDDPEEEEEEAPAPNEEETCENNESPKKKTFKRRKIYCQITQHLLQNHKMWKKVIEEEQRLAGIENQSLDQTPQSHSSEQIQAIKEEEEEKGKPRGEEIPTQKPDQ
quantityMeasured: IC50

The recorded IC50 for entry O=C1CCC(c2ccc(N3CCOCC3)cc2)=NN1 [US11897867, Example 123] equals > 1000 nM

* * *

quantityMeasured: pIC50
// field semantics: pIC50 = negative decimal log of concentration (mol/L)

Lab entry: UniProt:Q13370 assay, compound O=C1CCC(c2ccc(-c3ccccc3C(F)(F)F)c(F)c2)=NN1 , pIC50 = 6.96

# credit: BindingDB's records for patent US11897867
